This listing pairs compounds with measured IC50.
- systemUnderTest: SHP2 (Homo sapiens (Human))
- experiment: SHP2 Biochemical Assay (DiFMUP conversion, pIRS1 activating peptide)
- conditionsUsed: DiFMUP substrate, 0.25 μM pIRS1 peptide, 30 min pre-incubation; average where more than one data point; read-out: SHP2 (IC50)
- Protocol: SHP2 activity was monitored by measuring the conversion of the surrogate substrate 6,8-difluoromethylumbelliferyl phosphate (DiFMUP) to the fluorescent product, 6,8-difluoromethylumbelliferone (DiFMU). SHP2 was pre-incubated with test compounds and the activating peptide pIRS1 (H2N-LN(pY)IDLDLV-(PEG)8-LST(pY)ASINFQK-amide) for 30 min, prior to addition of the […] (DiFMUP), (Thermo Fisher D6567). […]
Structures can show the parent of a compound that is named as a salt.

compound	systemUnderTest	IC50
N[C@H]1C[C@H]2CC[C@@H](C1)N2c1cnc2c(-c3ccc4oc(=O)[nH]c4c3Cl)c[nH]c2n1 [Example 19, hydrochloride salt]	SHP2 (Homo sapiens (Human))	47 nM
Cn1cc2c(Cl)c(-c3c[nH]c4nc(N5[C@@H]6CC[C@H]5C[C@@H](N)C6)cnc34)ccc2n1	SHP2 (Homo sapiens (Human))	10 nM
Cc1nc2c(-c3ccc4ncc(N5CCOCC5)nc4c3Cl)n[nH]c2nc1N1[C@H]2CC[C@@H]1[C@@H](F)[C@@H](N)C2	SHP2 (Homo sapiens (Human))	25 nM

---

- systemUnderTest: UniProt:Q06124
- experiment: SHP2 Biochemical Assay (DiFMUP conversion, pIRS1 activating peptide)
Where a name gives a salt, the structure may show the parent alone.
This listing pairs compounds with measured IC50.

compound	IC50 [nM]
Cn1ccnc1Cn1cc2c(Cl)c(-c3c[nH]c4nc(N5[C@@H]6CC[C@H]5C[C@@H](N)C6)cnc34)ccc2n1 [Example 68, trihydrochloride salt]	21
Cc1noc(Cn2cc3c(Cl)c(-c4c[nH]c5nc(N6[C@@H]7CC[C@H]6C[C@@H](N)C7)cnc45)ccc3n2)n1 [Example 69, hydrochloride salt]	6.8
COc1cnc2ccc(-c3n[nH]c4nc(N5[C@@H]6CC[C@H]5[C@@H](F)[C@@H](N)C6)c(C)nc34)c(Cl)c2n1 [Example 121]	14
CN(C)c1cnc2ccc(-c3n[nH]c4nc(N5[C@@H]6CC[C@H]5C[C@@](C)(N)C6)c(CO)nc34)c(Cl)c2n1 [Example 131]	8.8
N[C@H]1C[C@H]2CC[C@@H](C1)N2c1cnc2c(-c3ccc4nc(C5CCOC5)sc4c3Cl)c[nH]c2n1 (stereo partly drawn) [Example 39, dihydrochloride salt]	6.9
Cn1nc2ccc(-c3c[nH]c4nc(N5[C@H]6CC[C@@H]5[C@@H](F)[C@@H](N)C6)cnc34)c(Cl)c2c1Cl [Example 104, hydrochloride]	9.5
Cn1cc2c(Cl)c(-c3n[nH]c4nc(N5[C@H]6CC[C@@H]5[C@@H](F)[C@@H](N)C6)c(CO)nc34)ccc2n1 (racemic) [Example 78]	15
CN(C)c1cnc2ccc(-c3n[nH]c4nc(N5[C@@H]6CC[C@H]5[C@@H](F)[C@@H](N)C6)c(CO)nc34)c(Cl)c2n1 [Example 130]	9.5
Cc1nc2ccc(-c3c[nH]c4nc(N5[C@@H]6CC[C@H]5C[C@@H](N)C6)cnc34)c(Cl)c2c(=O)n1C [Example 52]	13

---

This listing pairs molecules with measured log10 IC50.
- systemUnderTest: SHP2 (Homo sapiens (Human), UniProt Q06124)
- Sequence (Q06124 whole entry): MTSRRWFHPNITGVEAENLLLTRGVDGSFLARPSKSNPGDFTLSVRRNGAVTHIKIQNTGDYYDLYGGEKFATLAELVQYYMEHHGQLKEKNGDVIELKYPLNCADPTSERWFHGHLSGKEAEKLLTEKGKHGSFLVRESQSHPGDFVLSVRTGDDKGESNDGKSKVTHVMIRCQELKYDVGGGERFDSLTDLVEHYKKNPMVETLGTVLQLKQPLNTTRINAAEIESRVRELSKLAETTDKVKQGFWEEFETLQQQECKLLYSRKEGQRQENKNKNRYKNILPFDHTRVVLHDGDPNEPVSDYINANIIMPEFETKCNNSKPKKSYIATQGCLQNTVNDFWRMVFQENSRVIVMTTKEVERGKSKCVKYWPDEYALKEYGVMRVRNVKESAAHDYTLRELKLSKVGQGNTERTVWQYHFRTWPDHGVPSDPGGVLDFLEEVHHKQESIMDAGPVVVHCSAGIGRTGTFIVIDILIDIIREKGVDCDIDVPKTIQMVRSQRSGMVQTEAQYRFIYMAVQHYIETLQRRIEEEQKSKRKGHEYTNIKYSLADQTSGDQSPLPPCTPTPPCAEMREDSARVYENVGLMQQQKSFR
- experiment: SHP2 Biochemical Assay (DiFMUP conversion, pIRS1 activating peptide)
- conditionsUsed: DiFMUP substrate, 0.25 μM pIRS1 peptide, 30 min pre-incubation; average where more than one data point; read-out: SHP2 (IC50)
Structures can show the parent of a compound that is named as a salt.
reportedMetric: log10 IC50 (log10 of the value in µM)

molecule	log10 IC50
Cn1nc2ccc(-c3c[nH]c4nc(N5[C@@H]6CC[C@H]5C[C@@H](N)C6)cnc34)c(Cl)c2c1CC#N [Example 61]	-0.89
Cn1cc2c(Cl)c(-c3c[nH]c4nc(N5[C@@H]6CC[C@H]5[C@H](F)[C@@H](N)C6)cnc34)ccc2n1 [Example 65]	-1.43
CN(C)c1nc2ccc(-c3c[nH]c4nc(N5[C@@H]6CC[C@H]5C[C@@H](N)C6)cnc34)c(Cl)c2s1 [Example 18, hydrochloride salt]	-1.89
COc1cnc2ccc(-c3n[nH]c4nc(N5[C@@H]6CC[C@H]5[C@@H](F)[C@@H](N)C6)c(CO)nc34)c(Cl)c2n1 [Example 109]	-1.96
Cc1nc2ccc(-c3c[nH]c4nc(N5[C@@H]6CC[C@H]5C[C@@H](N)C6)cnc34)c(Cl)c2s1 [Example 15]	-2.23
Cn1nc2ccc(-c3n[nH]c4nc(N5[C@H]6CC[C@@H]5[C@@H](F)[C@@H](N)C6)c(CO)nc34)c(Cl)c2c1C#N [Example 129]	-2.30

---

- systemUnderTest: SHP2 (Homo sapiens (Human))
- experiment: SHP2 Biochemical Assay (DiFMUP conversion, pIRS1 activating peptide)
- conditionsUsed: DiFMUP substrate, 0.25 μM pIRS1 peptide, 30 min pre-incubation; average where more than one data point; read-out: SHP2 (IC50)
Counter-ions that a name gives are not always drawn.

molecule	IC50 [nM]
COc1cnc2ccc(-c3n[nH]c4nc(N5[C@H]6CC[C@@H]5[C@@H](F)[C@@H](N)C6)c(C)nc34)c(Cl)c2n1	3
Cn1nc2ccc(-c3n[nH]c4nc(N5[C@H]6CC[C@@H]5[C@@H](F)[C@@H](N)C6)c(CO)nc34)c(Cl)c2c1Cl	5.2
N[C@H]1C[C@H]2CC[C@@H](C1)N2c1cnc2c(-c3ccc4nc(CO)sc4c3Cl)c[nH]c2n1 [Example 44, hydrochloride salt]	6.8
Cc1nc2c(-c3ccc4nn(C)cc4c3Cl)n[nH]c2nc1N1C2CCCC1CNC2 [Example 91, hydrochloride salt]	22
Cc1nc2c(-c3ccc4nn(C)cc4c3Cl)c[nH]c2nc1N1[C@@H]2CC[C@H]1C[C@@H](N)C2	20
N[C@H]1C[C@H]2CC[C@@H](C1)N2c1cnc2c(-c3ccc4[nH]nc(Cl)c4c3Cl)c[nH]c2n1	10
Cn1cc2c(Cl)c(-c3c[nH]c4nc(N5CCC(N)CC5)cnc34)ccc2n1	16
Cn1nc2ccc(-c3c[nH]c4nc(N5[C@@H]6CC[C@H]5C[C@@H](N)C6)cnc34)c(Cl)c2c1Cl	4.3
CCn1cc2c(Cl)c(-c3c[nH]c4nc(N5[C@@H]6CC[C@H]5C[C@H](N)C6)cnc34)ccc2n1 [Example 28, hydrochloride salt]	9.6
N[C@H]1C[C@@H]2CC[C@H]([C@H]1F)N2c1nc2[nH]nc(-c3ccc4ncsc4c3Cl)c2nc1CO	3
Cc1nc2ccc(-c3c[nH]c4nc(N5[C@@H]6CC[C@H]5C[C@@H](N)C6)cnc34)c(Cl)c2c(=O)[nH]1	11
Cc1nc2c(-c3ccc4nc(CO)sc4c3Cl)n[nH]c2nc1N1[C@H]2CC[C@@H]1[C@@H](F)[C@@H](N)C2 [Example 132, hydrochloride]	11
Cc1nc2c(-c3ccc4nn(C)cc4c3Cl)n[nH]c2nc1N1[C@@H]2CC[C@H]1C[C@H](N)C2 [Example 40, dihydrochloride salt]	10
Cn1cnc2ccc(-c3c[nH]c4nc(N5[C@@H]6CC[C@H]5C[C@@H](N)C6)cnc34)c(Cl)c2c1=O [Example 56, hydrochloride salt]	21
Cn1nc2ccc(-c3n[nH]c4nc(N5[C@@H]6CC[C@H]5[C@@H](F)[C@@H](N)C6)c(CO)nc34)c(Cl)c2c1Cl	7.5
Cc1nc2c(-c3ccc4nn(C)cc4c3Cl)n[nH]c2nc1N1[C@H]2CC[C@@H]1[C@@H](F)[C@@H](N)C2 [Example 73, hydrochloride salt]	9.8
Cn1cc2c(F)c(-c3c[nH]c4nc(N5[C@@H]6CC[C@H]5C[C@@H](N)C6)cnc34)ccc2n1	53
Cn1cc2c(Cl)c(-c3c[nH]c4nc(N5[C@@H]6CC[C@H]5C[C@@H](N)C6)cnc34)cc(F)c2n1	31
CN(C)c1nc2ccc(-c3n[nH]c4nc(N5C6CCC5[C@@H](F)[C@@H](N)C6)c(CO)nc34)c(Cl)c2s1 (stereo in doubt)	9.7
CCn1nc2ccc(-c3n[nH]c4nc(N5[C@H]6CC[C@@H]5[C@@H](F)[C@@H](N)C6)c(CO)nc34)c(Cl)c2c1Cl	8.9
Cn1cc2c(Cl)c(-c3c[nH]c4nc(N5CC[C@H](N)[C@H](F)C5)cnc34)ccc2n1 [Example 33, hydrochloride salt]	33
COc1cnc2ccc(-c3n[nH]c4nc(N5[C@@H]6CC[C@H]5C[C@@H](N)C6)c(CO)nc34)c(Cl)c2n1	7.4
Cn1c(=O)sc2ccc(-c3c[nH]c4nc(N5CC[C@H](N)[C@H](F)C5)cnc34)c(Cl)c21 [Example 76, hydrochloride]	440
N[C@H]1C[C@@H]2CC[C@H]([C@H]1F)N2c1nc2[nH]nc(-c3ccc4ncc(N5CCOCC5)nc4c3Cl)c2nc1CO	14
Cn1cc2c(Cl)c(-c3c[nH]c4nc(N5CC[C@H](N)[C@@H](O)C5)cnc34)ccc2n1 [Example 31, hydrochloride salt]	22
CC(C)n1nc2ccc(-c3n[nH]c4nc(N5[C@H]6CC[C@@H]5[C@@H](F)[C@@H](N)C6)c(CO)nc34)c(Cl)c2c1C#N	14

Reference source for all entries: patent US11466016B2
